# Method Summary: Stability after preparation and after 3 months in HDPE containers, normal and intermediate conditions (impurities)
# Type: physicochemical
# Experimental Context: 3 months 25° C./60% RH; unknown impurity
Readout: Unknown (%)
Answer in %, number only, no unit symbol.

// query Look up Unknown for this compound: CC(C)c1c(C(=O)Nc2ccccc2)c(-c2ccccc2)c(-c2ccc(F)cc2)n1CC[C@@H](O)C[C@@H](O)CC(=O)O (relative stereo) [Atorvastatin, trihydrate]
// result 0.38

###

# Method Summary: Stability of unpacked tablets at 40° C.±2° C. and 75%±5% RH (impurities)
# Format: physicochemical
# Experimental Context: 40°/75 RH, total impurities
Readout: Total (%)
Report the value in % with no unit label.

// query Reported Total for CC(C)c1c(C(=O)Nc2ccccc2)c(-c2ccccc2)c(-c2ccc(F)cc2)n1CC[C@@H](O)C[C@@H](O)CC(=O)O (relative stereo) [Atorvastatin, trihydrate] : what is it?
// result 1.87

###

# Method Summary: Stability of unpacked tablets at 40° C.±2° C. and 75%±5% RH (impurities)
# Format: physicochemical
# Experimental Context: 40°/75 RH
Readout: Lactone (%)
Give the quantity in %, number only.

// query Looking for the measured Lactone of CC(C)c1c(C(=O)Nc2ccccc2)c(-c2ccccc2)c(-c2ccc(F)cc2)n1CC[C@@H](O)C[C@@H](O)CC(=O)O (relative stereo) [Atorvastatin, trihydrate] , can you help?
// result 0.45

###

# Method Summary: Stability of unpacked tablets at 40° C.±2° C. and 75%±5% RH (impurities)
# Format: physicochemical
# Experimental Context: 40°/75 RH
Readout: Desfluoro (%)
Respond numerically; units are % and should not be typed.

// query Consider the compound shown here: CC(C)c1c(C(=O)Nc2ccccc2)c(-c2ccccc2)c(-c2ccc(F)cc2)n1CC[C@@H](O)C[C@@H](O)CC(=O)O (relative stereo) [Atorvastatin, trihydrate] What is its recorded Desfluoro?
// result 0.08

###

# Method Summary: Stability after preparation and after 3 months in HDPE containers, normal and intermediate conditions (impurities)
# Assay type: physicochemical
# Experimental Context: 3 months 30° C./65% RH; unknown impurity
Readout: Unknown (%)
Please give a number only; it is taken to be in %.

// query Can you share its Unknown? I mean this molecule: CC(C)c1c(C(=O)Nc2ccccc2)c(-c2ccccc2)c(-c2ccc(F)cc2)n1CC[C@@H](O)C[C@@H](O)CC(=O)O (relative stereo) [Atorvastatin, trihydrate]
// result 0.4

###

# Method Summary: Stability after preparation and after 3 months in HDPE containers, normal and intermediate conditions (impurities)
# Assay type: physicochemical
# Experimental Context: 0 months; unknown impurity
Readout: Unknown (%)
Reply numerically in %, unit not repeated.

// query Requested field: Unknown. Item: CC(C)c1c(C(=O)Nc2ccccc2)c(-c2ccccc2)c(-c2ccc(F)cc2)n1CC[C@@H](O)C[C@@H](O)CC(=O)O (relative stereo) [Atorvastatin, trihydrate]
// result 0.34

###

# Method Summary: Stability of unpacked tablets at 40° C.±2° C. and 75%±5% RH (impurities)
# Assay type: physicochemical
# Experimental Context: 40°/75 RH
Readout: Atorvastatin Diepoxide
Entry format: amount then unit.

// query What value of Atorvastatin Diepoxide has been recorded for this entry: CC(C)c1c(C(=O)Nc2ccccc2)c(-c2ccccc2)c(-c2ccc(F)cc2)n1CC[C@@H](O)C[C@@H](O)CC(=O)O (relative stereo) [Atorvastatin, trihydrate]
// result 0.34%
